# test_system: full-length TcdB (TcdB1-2366), VPI10463 (Clostridioides difficile strain VPI10463, UniProt P18177 1-2366)
# Sequence (P18177 whole entry): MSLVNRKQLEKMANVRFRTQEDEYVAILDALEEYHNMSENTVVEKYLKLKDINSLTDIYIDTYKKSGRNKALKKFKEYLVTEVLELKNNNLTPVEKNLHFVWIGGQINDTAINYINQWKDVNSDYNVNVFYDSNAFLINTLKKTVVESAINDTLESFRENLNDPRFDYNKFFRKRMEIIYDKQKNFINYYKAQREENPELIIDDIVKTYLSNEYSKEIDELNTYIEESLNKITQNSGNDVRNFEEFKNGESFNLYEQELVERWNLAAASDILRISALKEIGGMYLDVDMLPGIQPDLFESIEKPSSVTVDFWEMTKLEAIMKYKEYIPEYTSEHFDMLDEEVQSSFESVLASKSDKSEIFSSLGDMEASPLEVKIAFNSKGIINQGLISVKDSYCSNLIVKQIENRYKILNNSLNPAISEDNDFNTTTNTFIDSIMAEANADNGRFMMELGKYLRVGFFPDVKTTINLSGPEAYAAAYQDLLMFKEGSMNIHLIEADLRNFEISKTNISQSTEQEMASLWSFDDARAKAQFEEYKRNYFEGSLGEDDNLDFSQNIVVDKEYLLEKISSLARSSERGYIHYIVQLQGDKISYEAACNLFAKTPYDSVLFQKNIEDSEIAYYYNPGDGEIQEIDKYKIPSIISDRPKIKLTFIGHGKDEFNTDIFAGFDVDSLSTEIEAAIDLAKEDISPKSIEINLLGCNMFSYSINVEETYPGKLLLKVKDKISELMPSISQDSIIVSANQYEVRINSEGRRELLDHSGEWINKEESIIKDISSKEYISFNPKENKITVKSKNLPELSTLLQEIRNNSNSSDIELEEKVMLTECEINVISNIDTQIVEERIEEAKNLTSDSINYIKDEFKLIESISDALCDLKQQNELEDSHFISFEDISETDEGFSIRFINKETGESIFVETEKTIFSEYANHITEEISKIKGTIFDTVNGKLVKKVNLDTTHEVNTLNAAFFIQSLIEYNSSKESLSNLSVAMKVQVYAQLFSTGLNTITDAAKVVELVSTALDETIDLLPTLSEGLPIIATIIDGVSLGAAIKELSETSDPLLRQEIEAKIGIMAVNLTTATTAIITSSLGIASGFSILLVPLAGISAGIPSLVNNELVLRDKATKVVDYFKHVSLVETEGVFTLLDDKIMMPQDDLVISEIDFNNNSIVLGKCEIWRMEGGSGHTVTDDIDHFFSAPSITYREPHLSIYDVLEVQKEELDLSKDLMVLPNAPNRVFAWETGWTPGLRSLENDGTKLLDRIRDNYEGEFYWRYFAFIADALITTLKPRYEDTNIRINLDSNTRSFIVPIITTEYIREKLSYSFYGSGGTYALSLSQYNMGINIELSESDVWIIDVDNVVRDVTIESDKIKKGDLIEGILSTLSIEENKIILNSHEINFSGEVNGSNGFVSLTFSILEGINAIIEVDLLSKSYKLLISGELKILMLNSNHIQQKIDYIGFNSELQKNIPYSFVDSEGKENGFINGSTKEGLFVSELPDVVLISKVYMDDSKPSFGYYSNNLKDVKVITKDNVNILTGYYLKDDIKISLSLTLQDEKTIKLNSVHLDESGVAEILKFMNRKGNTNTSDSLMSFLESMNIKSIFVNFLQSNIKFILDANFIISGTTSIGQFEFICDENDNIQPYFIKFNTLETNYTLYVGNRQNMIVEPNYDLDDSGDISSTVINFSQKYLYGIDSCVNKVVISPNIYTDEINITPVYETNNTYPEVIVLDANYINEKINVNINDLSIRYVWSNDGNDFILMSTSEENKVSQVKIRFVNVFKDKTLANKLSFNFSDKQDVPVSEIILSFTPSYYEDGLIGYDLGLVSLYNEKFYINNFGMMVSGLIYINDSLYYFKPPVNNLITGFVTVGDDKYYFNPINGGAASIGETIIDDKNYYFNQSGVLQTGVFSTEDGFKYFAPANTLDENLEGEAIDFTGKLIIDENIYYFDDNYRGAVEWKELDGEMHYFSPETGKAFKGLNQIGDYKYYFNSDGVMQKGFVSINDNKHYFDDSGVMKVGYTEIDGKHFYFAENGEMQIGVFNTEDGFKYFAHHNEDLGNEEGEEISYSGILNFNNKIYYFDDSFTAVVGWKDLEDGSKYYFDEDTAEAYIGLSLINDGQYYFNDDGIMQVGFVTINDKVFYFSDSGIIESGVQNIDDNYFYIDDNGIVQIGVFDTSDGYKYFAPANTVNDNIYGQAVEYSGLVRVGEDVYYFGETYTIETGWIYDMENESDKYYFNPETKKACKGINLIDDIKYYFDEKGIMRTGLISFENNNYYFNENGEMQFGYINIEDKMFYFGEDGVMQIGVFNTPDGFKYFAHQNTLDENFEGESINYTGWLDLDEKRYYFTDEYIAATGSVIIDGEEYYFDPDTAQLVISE
# measurement_protocol: cell-based or functional assay
Each record here notes measured EC50 (nM), TcdB neutralization, Vero cells.
Give a bare numeral; the unit nM is implied.

Consider the reported EC50 (nM), TcdB neutralization, Vero cells for these binders:
[
  {
    "binder": "B1A11 (VHH) VHH: QVQLQESGGGVVQPGGSLRLTCTSSRSINIYVAMGWYRQAPGKQRERVATAHKDGGTRYSDSVKGRFTISRDDDKNTVYLQMNNLEPGDTAVYYCNAFGSSAWGQGTQVTVSS",
    "number": 38.4
  },
  {
    "binder": "B0C10 (VHH) VHH: QVQLQESGGGLVQPGGSLRLSCTASGFTRKHYTIGWFRQAPGKEREGVSCITTPDNSTYYKDSVKGRFTISRDNAKNTVYLQMNNVKPEDTAVYYCGASALGGSSCAQSSSVLHRLFQWGQGTQVTVSS",
    "number": 1.3
  },
  {
    "binder": "B0A9 (VHH) VHH: QVQLQESGGGLVQPGGSLRLTCTSSTSINIYPYMGWYRQAPGKQRERVATVNRDGNTNYLDSVKGRFTITRDDAKKTICLQMNNLEPEDTAVYYCNNFGSSSWGQGTQVTVSS",
    "number": 12.9
  },
  {
    "binder": "B1C10 (VHH) VHH: QVQLQESGGGLVQPGGSLRLSCLASGLSLSTDVMSWFRQAPGKERELVAGIRSAGWITNYADSVKGRFTISVDSAKNTVYLQMNSLKPEDTAVYYCKVLRLPDGLAFWGQGTQVTVSS",
    "number": 2.2
  },
  {
    "binder": "B2F11 (VHH) VHH: QVQLQESGGGLVQAGGSLTLSCTASGFTFSNYVMSWYRQAPGKEREWVASVSESGQSRTYADSVKGRFTISRDNTNFSVYLQMNNLNSEDTAVYYCNTGSRTYGARYWGQGTQVTVSS",
    "number": 15.6
  }
]

Please list EC50 (nM), TcdB neutralization, Vero cells recorded for the binder B0E2 (VHH) VHH: QVQLQESGGGLVLPGGSLRLSCAASGTVFKIYVMGWYRQAPGKQRELVATISNGGTPNYADSVKGRFTISGDRAKNTVFLQMSSLNVEDTAVYYCNRRQLEGRQSEDYWGQGTQVTVSS
28

Please list EC50 (nM), TcdB neutralization, Vero cells recorded for the binder B0D11 (VHH) VHH: QVQLQESGGGLAQPGGSLRLSCAASGFTFSHAVMSWFRQAPGKERELVAGWRSAGGITNYADSVKGRFTISGDNAKDVVYLQMNSLKPEDTAVYYCKAFVVGSAYWGQGTQVTVSS
176

Measured values drawn from patent US20250179155A1 for this set.
